test system: pooled human cryopreserved hepatocytes (pHHeps); assay: Metabolic stability, pooled human cryopreserved hepatocyte incubations; settings: pHHeps, 45 min
Threshold 2%. % parent compound remaining, Average below it: true (1). % parent compound remaining, Average at it or above: false (0).

Some solved cases for reference:
[
  {
    "compound": "COC(=O)[C@@H](NC(=O)c1nn(CCCCCF)c2ccccc12)C(C)C [(S)-5F-AMB-PINACA (10)]",
    "discrete_label": "true (1)"
  },
  {
    "compound": "COC(=O)[C@@H](NC(=O)c1nn(CCCCCF)c2ccccc12)C(C)(C)C [(S)-5F-MDMB-PINACA (2)]",
    "discrete_label": "false (0)"
  },
  {
    "compound": "COC(=O)[C@H](NC(=O)c1nn(Cc2ccc(F)cc2)c2ccccc12)C(C)(C)C [(R)-MDMB-FUBINACA (6)]",
    "discrete_label": "false (0)"
  },
  {
    "compound": "O=c1ccc2ccc(O)cc2o1 [7-hydroxycoumarin, reference compound]",
    "discrete_label": "false (0)"
  },
  {
    "compound": "C=CCCCn1nc(C(=O)N[C@H](C(=O)OC)C(C)(C)C)c2ccccc21 [(S)-MDMB-4en-PINACA (5)]",
    "discrete_label": "false (0)"
  },
  {
    "compound": "COC(=O)C(NC(=O)c1cn(CC2CCCCC2)c2ccccc12)C(C)C (stereo in doubt) [(R)-AMB-CHMICA (9)]",
    "discrete_label": "false (0)"
  },
  {
    "compound": "COC(=O)C(NC(=O)c1nn(Cc2ccc(F)cc2)c2ccccc12)C(C)C (stereo in doubt) [(R)-AMB-FUBINACA (1)]",
    "discrete_label": "true (1)"
  },
  {
    "compound": "COC(=O)[C@@H](NC(=O)c1cn(CC2CCCCC2)c2ccccc12)C(C)C [(S)-AMB-CHMICA (9)]",
    "discrete_label": "false (0)"
  }
]

Now for another entry.
Prompt: Determine whether this compound shows % parent compound remaining, Average lower than 2% (ties excluded): C=CCCCn1cc(C(=O)N[C@@H](C(=O)OC)C(C)C)c2ccccc21 [(R)-AMB-4en-PICA (7)]
Response: true (1)

----------
assay: Chromatographic hydrophobicity index (CHI) log D at pH 7.4; settings: reversed-phase HPLC, Acquity BEH C18 column
measurement_label: chromatographic logD
# output: bare number, no unit

Consider the reported chromatographic logD for these molecules:
[
  {
    "molecule": "COC(=O)C(NC(=O)c1nn(CCCCCF)c2ccccc12)C(C)(C)C (centres unmarked)",
    "chromatographic logD": 4.5
  },
  {
    "molecule": "CC(C)C(NC(=O)c1nn(CC2CCCCC2)c2ccccc12)C(N)=O (centres unmarked) [AB-[…] (11)]",
    "chromatographic logD": 3.71
  },
  {
    "molecule": "COC(=O)[C@@H](NC(=O)c1cn(CC2CCCCC2)c2ccccc12)C(C)C",
    "chromatographic logD": 4.77
  },
  {
    "molecule": "COC(=O)[C@@H](NC(=O)c1nn(Cc2ccc(F)cc2)c2ccccc12)C(C)C",
    "chromatographic logD": 4.28
  },
  {
    "molecule": "C=CCCCn1cc(C(=O)NC(C(=O)OC)C(C)(C)C)c2ccccc21 (centres unmarked)",
    "chromatographic logD": 4.4
  },
  {
    "molecule": "CC(C)C(NC(=O)c1nn(Cc2ccc(F)cc2)c2ccccc12)C(N)=O (centres unmarked)",
    "chromatographic logD": 2.81
  },
  {
    "molecule": "COC(=O)[C@@H](NC(=O)c1nn(CCCCCF)c2ccccc12)C(C)C",
    "chromatographic logD": 4.07
  },
  {
    "molecule": "C=CCCCn1nc(C(=O)NC(C(=O)OC)C(C)(C)C)c2ccccc21 (centres unmarked)",
    "chromatographic logD": 4.95
  }
]

Prompt: Check the records and state chromatographic logD for COC(=O)C(NC(=O)c1nn(CCCCF)c2ccccc12)C(C)(C)C (centres unmarked)
Response: 4.18

Prompt: Check the records and state chromatographic logD for COC(=O)C(NC(=O)c1cn(CCCCCF)c2ccccc12)C(C)(C)C (centres unmarked)
Response: 4.06

Prompt: Check the records and state chromatographic logD for C=CCCCn1cc(C(=O)NC(C(=O)OC)C(C)C)c2ccccc21 (centres unmarked)
Response: 3.97

The measured values listed here are drawn from paper PMC7961380.
